# Test system: COLO 205 colon
# Assay summary: NCI-60 one-dose screen, 48 h
# Measurement context: 10 µM unless noted
Compounds without any hit were thinned out: in the full panel of roughly 83,000, 20% have a hit. The source made the active and inactive calls. How the source made its calls: active means growth percent below 10; inactive means the rest.
Your reply should match one of these outcome classes. active, inactive

The examples below pair each entry with its known result.
INSERT INTO results (molecule, assayed_target, assigned_category) VALUES
  ('C=CCOc1ccc2c(C)cc(=O)oc2c1', 'COLO 205 colon', 'inactive'),
  ('COc1cc(OC)c2sc(-c3ccc(-n4cncc4-c4ccc(OC)c(N)c4)cc3)nc2c1', 'COLO 205 colon', 'inactive'),
  ('O=c1oc2ccccc2cc1-c1cc(-c2ccc(-c3cc(-c4cc5ccccc5oc4=O)nc(-c4cc5ccccc5oc4=O)c3)cc2)cc(-c2cc3ccccc3oc2=O)n1', 'COLO 205 colon', 'inactive'),
  ('O=[N+]([O-])c1ccc(N/N=C/c2ccccc2O)nc1', 'COLO 205 colon', 'inactive'),
  ('COc1ccc(-c2cc(C(=O)Nc3ccc(Br)cc3)nc3[nH]c(=O)sc23)cc1', 'COLO 205 colon', 'inactive');

Check the results log: what was the call for "O=C1c2cccc3cccc(c23)C(=O)N1CCCCCCCCCCN1C(=O)c2cccc3cccc(c23)C1=O" ?
inactive

Do the same for "CC(=O)O[C@H]1CC[C@]2(C)[C@H]3CC=C4[C@@H]5CC(C)(C)CC[C@]5(C(=O)OCC(COC(=O)C(Cl)Cl)(COC(=O)C(Cl)Cl)NC(=O)C(Cl)Cl)CC[C@@]4(C)[C@]3(C)CC[C@H]2C1(C)C" please
inactive

Again, but for CC(C)c1ccc2c(c1)CCC1C2CCCC1(C)NCc1ccccc1 (stereo unspecified)
active

Then what about the molecule CCCCCCCCCCCC1=NC(C)(C)CN1CC(C)O (stereo unspecified) ?
active

Field entry: "Cc1c(C(=O)Nc2ccccc2F)sc2c(=O)[nH]cnc12"
inactive

Lookup CCOC(=O)C1OC2(CCCC2)OC1C(=O)OCC (stereo unspecified)
inactive

Same lookup for "CCNC(=O)c1ccc2c(c1)nc(-c1ccc(Cl)cc1)n2-c1cc(C(C)(C)C)[nH]n1" , please.
inactive

Next record, please: "CCCCCCCCCCCC1=NC(C)(C)CN1CCO"
active
